pEC50: recorded values
Test system: MDA-MB-435 cells
Test: Apoptosis by DAPI staining (Example 8)
Format: cell-based, human
Reported conditions: MDA-MB-435; 2% serum; DAPI staining at three day treatment
pEC50: −log10 of the molar value.
Readout: pEC50

{"Compound": "Cc1c(C)c2c(c(C)c1OC(=O)CCC(=O)O)CC[C@@](C)(CCC[C@H](C)CCC[C@H](C)CCCC(C)C)O2 [VES, RRR-α-tocopherol succinate, reference compound]", "Experimental target": "MDA-MB-435 cells", "Relation operator": "=", "Result number": 4.44}
{"Compound": "Cc1c(C)c2c(c(C)c1O)CC[C@@](C)(CCC[C@H](C)CCC[C@H](C)CCCC(C)C)O2 [α-tocopherol, RRR-α-tocopherol, reference compound]", "Experimental target": "MDA-MB-435 cells", "Relation operator": "<", "Result number": 4.00}

* * *

System: MDA-MB-435
Test: Bioassay for apoptosis (apoptotic EC50)
Type: cell-based, human
Reported conditions: MDA-MB-435; unit not given; in µg/mL

{"Compound": "Cc1c(C)c2c(c(C)c1OCCCN)CC[C@@](C)(CCC[C@H](C)CCCC(C)CCCC(C)C)O2.Cl (stereo partly drawn)", "apoptotic EC50": "10-20"}
{"Compound": "Cc1c(C)c2c(c(C)c1OCCCC(=O)O)CC[C@@](C)(CCC[C@H](C)CCC[C@H](C)CCCC(C)C)O2", "apoptotic EC50": "5-10"}
{"Compound": "Cc1c(C)c2c(c(C)c1OCC(=O)O)CC[C@@](C)(CCC[C@H](C)CCC[C@H](C)CCCC(C)C)O2", "apoptotic EC50": "5-10"}
{"Compound": "Cc1c(C)c(OCC(=O)O)c(C)c2c1NC(C)(CCCC(C)CCCC(C)CCCC(C)C)CC2 (stereo not drawn)", "apoptotic EC50": "10-20"}
{"Compound": "Cc1c(C)c2c(c(C)c1OCCC(=O)O)CC[C@@](C)(CCC[C@H](C)CCC[C@H](C)CCCC(C)C)O2", "apoptotic EC50": "10-20"}
{"Compound": "Cc1c(C)c2c(c(C)c1OC(=O)CCC(=O)O)CC[C@@](C)(CCC[C@H](C)CCC[C@H](C)CCCC(C)C)O2 [VES, RRR-α-tocopherol succinate, reference compound]", "apoptotic EC50": "5-10"}

* * *

Tested on: A-549
Test: Bioassay for apoptosis (apoptotic EC50)
Type: cell-based, human
Reported conditions: Homo sapiens, A549, unit inferred
Attribute: EC50
Readout: EC50

{"Molecule": "Cc1c(C)c2c(c(C)c1OCC(=O)O)CC[C@@](C)(CCC[C@H](C)CCC[C@H](C)CCCC(C)C)O2", "Readout": "EC50", "Result": "10 to 20 µg/mL"}
{"Molecule": "CC(C)=CCC/C(C)=C/C=C/C(C)=C/[C@]1(C)CCc2c(C)c(OCC(=O)O)c(C)c(C)c2O1", "Readout": "EC50", "Result": "> 20 µg/mL"}
{"Molecule": "CC(C)=CCC/C(C)=C\\C=C/[C@]1(C)CCc2c(C)c(OCC(=O)O)c(C)c(C)c2O1", "Readout": "EC50", "Result": "> 20 µg/mL"}
{"Molecule": "Cc1c(C)c2c(c(C)c1OCC(=O)O)CC[C@@](C)(CCCC(C)CCCC(C)CCCC(C)C)O2 (some centres unmarked)", "Readout": "EC50", "Result": "> 20 µg/mL"}
{"Molecule": "Cc1c(C)c2c(c(C)c1OCC(=O)O)C=C[C@@](C)(CCC[C@H](C)CCC[C@H](C)CCCC(C)C)O2", "Readout": "EC50", "Result": "20 to 30 µg/mL"}
